# credit: patent US7671048B2

- experimental_system: GABA A receptor α1β3γ2 (Homo sapiens, UniProt P14867+P18507)
- Construct: expressed in transfected cells; host or cells: HEK293 (transiently transfected), membranes
- procedure_summary: [3H]flumazenil competition binding, human α1β3γ2
Exercise: state measured pKi for each of the compounds provided.
Note on pKi: it is the negative log10 of concentration, concentration in mol/L.

Entry under review: O=C(CCCc1ccccc1)c1ncn2c1Cn1ncnc1-c1cc(F)ccc1-2 . Reported pKi?
7.34

I'd like to know its pKi. The compound in question is CCCC(=O)c1ncn2c1Cn1ncnc1-c1cc(Br)ccc1-2
7.07

# get_value(readout='pKi', item= CCOC(=O)c1ncn2c1Cn1ncnc1-c1cc(NC=O)ccc1-2 )
8.19

Bench note: what pKi did C#Cc1ccc2c(c1)-c1ncnn1Cc1c(C(=O)OCC)ncn1-2 show?
7.97

* * *

Kindly supply the reported pKi values for the records listed here.
- experimental_system: GABA A receptor α1β3γ2 (Homo sapiens, UniProt P14867+P18507)
- Construct: expressed in transfected cells; host or cells: HEK293 (transiently transfected), membranes
- procedure_summary: [3H]flumazenil competition binding, human α1β3γ2
Lab note: report pKi as minus log10 of the concentration in molar units, number only.

Look up pKi: COCCOC(=O)c1ncn2c1Cn1ncnc1-c1cc(Br)ccc1-2
7.69

Look up pKi: CCOC(=O)c1ncn2c1Cn1ncnc1-c1cc(NC(=O)CCOC)ccc1-2
8.01

Suppose we examine the compound CCOC(=O)c1ncn2c1Cn1ncnc1-c1cc(NC(=O)C(C)C)ccc1-2 ; what pKi value has been reported?
7.94

Entry under review: CCOC(=O)c1ncn2c1Cn1ncnc1-c1cc(C3CC3)ccc1-2 . Reported pKi?
8.77

Any idea what pKi was measured for CCC(=O)c1ncn2c1Cn1ncnc1-c1cc(F)ccc1-2 ?
8.21

* * *

- experimental_system: GABA A receptor α5β3γ2 (Homo sapiens, UniProt P18507+P31644)
- Construct: expressed in transfected cells; host or cells: HEK293 (transiently transfected), membranes
- procedure_summary: [3H]flumazenil competition binding, human α5β3γ2
Would you mind telling me the reported Ki of each entry?
Write the answer as a number in nM, unit excluded.

Bench note: what Ki did CCOC(=O)c1ncn2c1Cn1ncnc1-c1cc(C3CC3)ccc1-2 show?
0.6

// returns reported Ki for input CCOC(=O)Nc1ccc2c(c1)-c1ncnn1Cc1c(C(=O)OCC)ncn1-2
2.6

Item CCOC(=O)c1ncn2c1Cn1ncnc1-c1cc(OC)ccc1-2 has what recorded Ki?
0.2

Need Ki, item CCNC(=O)Nc1ccc2c(c1)-c1ncnn1Cc1c(C(=O)OCC)ncn1-2
6.9

Query: Ki; subject: CC(C)CC(=O)c1ncn2c1Cn1ncnc1-c1cc(Br)ccc1-2
8.3

What does the record list as Ki for CCCC(=O)c1ncn2c1Cn1ncnc1-c1cc(Br)ccc1-2 ?
3.5

Requested field: Ki. Item: O=Cc1ncn2c1Cn1ncnc1-c1cc(Cl)ccc1-2
5.9

Which Ki is listed for CCOC(=O)c1ncn2c1Cn1ncnc1-c1cc(NC(=O)C(C)C)ccc1-2 ?
6.4

Would you kindly share the measured Ki for O=C(CCCc1ccccc1)c1ncn2c1Cn1ncnc1-c1cc(F)ccc1-2 ?
16.4

Return reported Ki; argument: CCOC(=O)c1ncn2c1Cn1ncnc1-c1cc(NC(=O)C(F)(F)F)ccc1-2
1.2

# input molecule: C#CCNC(=O)c1ncn2c1Cn1ncnc1-c1cc(F)ccc1-2 ; wanted: its Ki
67.8

// query Ki value for entry COCCOC(=O)c1ncn2c1Cn1ncnc1-c1cc(Br)ccc1-2
1.4

Look up Ki: C#Cc1ccc2c(c1)-c1ncnn1Cc1c(C(=O)OCC)ncn1-2
0.6

Which measured Ki value corresponds to CCOC(=O)c1ncn2c1Cn1ncnc1-c1cc(NC=O)ccc1-2 ?
2

Any idea what Ki was measured for CCC(=O)c1ncn2c1Cn1ncnc1-c1cc(F)ccc1-2 ?
2.2

# Ki lookup, item CCOC(=O)c1ncn2c1Cn1ncnc1-c1cc(OC(F)(F)F)ccc1-2
0.7

Please report the recorded Ki for CCOC(=O)c1ncn2c1Cn1ncnc1-c1cc(NC(=O)CCOC)ccc1-2 .
5.1

Could you share which Ki value was measured for O=C(CCc1ccccc1)c1ncn2c1Cn1ncnc1-c1cc(Br)ccc1-2 ?
3.8

Please report the recorded Ki for O=C(c1ncn2c1Cn1ncnc1-c1cc(Cl)ccc1-2)C1CC1 .
2.2

Endpoint output: Ki of O=C1CCCN1C(=O)c1ncn2c1Cn1ncnc1-c1cc(F)ccc1-2 . Value?
5.8

Item O=C(c1ncn2c1Cn1ncnc1-c1cc(F)ccc1-2)C1CC1 has what recorded Ki?
1.2

Sample CCC(=O)c1ncn2c1Cn1ncnc1-c1cc(Cl)ccc1-2 — what was its Ki?
2.7

* * *

- experimental_system: GABA A receptor α2β3γ2 (Homo sapiens, UniProt P18507+P47869)
- Construct: expressed in transfected cells; host or cells: HEK293 (transiently transfected), membranes
- procedure_summary: [3H]flumazenil competition binding, human α2β3γ2
- cond: HEK293 cell membranes, human (transiently transfected) receptor, 1 nM [3H]flumazenil, mean of two determinations; read-out: Ki[nM] hα2
// classify: if (Ki < 100 nM) condition met else condition not met

Quick check: Ki of O=C(CCc1ccccc1)c1ncn2c1Cn1ncnc1-c1cc(Br)ccc1-2 [Example 33] under 100 nM?
condition not met

Lab note: Ki threshold 100 nM. Does this compound come in strictly under it? CC(C)CC(=O)c1ncn2c1Cn1ncnc1-c1cc(Br)ccc1-2 [Example 31]
condition not met

Identify whether the compound O=Cc1ncn2c1Cn1ncnc1-c1cc(Cl)ccc1-2 [Example 21] records Ki below 100 nM.
condition not met

Dear colleague, could you confirm whether Ki of CC(=O)c1ncn2c1Cn1ncnc1-c1cc(F)ccc1-2 [Example 1] falls below 100 nM? Thanks.
condition not met

# strict comparison: is reported Ki < 100 nM? input = CCCC(=O)c1ncn2c1Cn1ncnc1-c1cc(Br)ccc1-2 [Example 26]
condition not met

Consider CCOC(=O)c1ncn2c1Cn1ncnc1-c1cc(Br)ccc1-2 [Example 23] . Does its Ki lie strictly below 100 nM?
condition met
